target: T1, human MMP-14 (human, UniProt P50281 112-541, limits assumed); experiment: enzymatic inhibition assay, 2 nM MMP-14, 10 uM substrate Mca-Pro-Leu-Ala-Cys(Mob)-Trp-Ala-Arg-Dap(Dnp)-NH2; rate against [IgG] 0-50 nM
T1 construct: Soluble MMP-14 used in selection, ELISA (biotinylated) and enzymatic assays; also called hMMP-14; bhMMP-14 (biotinylated human MMP-14)
Measured pKi accompanies every entry in the list below.
Interpret pKi as the negative base-10 log of the concentration measured in mol/L.

Enquiry: # pKi lookup, item M0038-F01 IgG (antibody, V domains shown, IgG of the Fab) VH: EVQLLESGGGLVQPGGSLRLSCAASGFTFSLYSMNWVRQAPGKGLEWVSSIYSSGGSTLYADSVKGRFTISRDNSKNTLYLQMNSLRAEDTAVYYCARGRAFDIWGQGTMVTVSS VL: DIQMTQSPSSLSAFVGDKVTITCRASQSVGTYLNWYQQKAGKAPELLIYATSNLRSGVPSRFSGSGSGTDFTLTINTLQPEDFATYYCQQSYSIPRFTFGPGTKVDIK
Return: 9.22
